- tested_system: beta-amyloid plaques in AD brain tissue (Homo sapiens)
- Sequence (P05067 672-711 limits assumed): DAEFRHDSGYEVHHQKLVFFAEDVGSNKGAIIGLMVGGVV
- assay_overview: In vitro binding assay: competitive displacement of [3H]6-OH-BTA-1 in AD brain homogenate
- conditions: [3H]6-OH-BTA-1 as reference radioligand; AD brain tissue
pKi: −log10 of the molar value.
measured_endpoint: pKi

a = CNc1ccc(-c2nc3ccc(O)cc3s2)nc1F
b = CNc1ccc(-c2nc3ccc(OC)cc3s2)nc1F
**Q:** Exercise: compare a and b ; which one has the greater pKi? # respond with the chosen item's label
**A:** b
(b: 8.00, a: 7.70)
